- Tested on: A549 cells
- assaySummary: Inhibition of KRas-mediated phosphorylation of ERK (Cisbio HTRF pERK), A549 cells
- Format: cell-based
- condition: Homo sapiens, A549, 3 h, 3 hr compound incubation, Cisbio pERK HTRF
parameter: IC50 (nM)

compound	targetUnderTest	parameter	measurementUnits	recordedMeasurement
CCc1c(F)ccc2cc(O)cc(N3CCc4c(nc(OC[C@@]56CCCN5C[C@H](F)C6)nc4N4CCCC5(CC(=O)NC5=O)C4)C3)c12 (stereo partly drawn) [Example 419]	A549 cells	IC50	nM	9
CCc1c(F)ccc2cc(O)cc(N3CCc4c(nc(OC[C@@]56CCCN5C[C@H](F)C6)nc4N4CCCn5nc(C(=O)OC)cc5C4)C3)c12 [Example 411]	A549 cells	IC50	nM	111
CCc1c(F)ccc2cc(O)cc(N3CCc4c(nc(OC[C@@]56CCCN5C[C@H](F)C6)nc4N4CCCn5nc(NC)c(F)c5C4)C3)c12 [Example 406]	A549 cells	IC50	nM	110

I. CCc1c(NC)nn2c1CN(c1nc(OC[C@@]34CCCN3C[C@H](F)C4)nc3c1CCN(c1cc(O)cc4ccc(F)c(CC)c14)C3)CCC2 [Example 404]
II. CCc1c(F)ccc2cc(O)cc(N3CCc4c(nc(OC[C@@]56CCCN5C[C@H](F)C6)nc4N4CCCn5nc(C(=O)N(C)C6CCC6)cc5C4)C3)c12 [Example 385]
III. CCc1c(F)ccc2cc(O)cc(N3CCc4c(nc(OCC5(CN(C)C)CC5)nc4N4CC(C)CC(CO)C4)C3)c12 (stereo not drawn) [Example 596]
Query: # ascending order, key=IC50 Order the labels as requested and give them as your answer.
Response: II, I, III
(II: 15 nM, I: 134 nM, III: 2670 nM)
